Molecular target: Human adrenergic α2B receptor (Homo sapiens, UniProt P18089)
Experiment: β-Arrestin GPCR functional assay, adrenergic α2B (Protocol B)
Type: cell-based
Conditions: 30 nM compound; nor-epinephrine at EC80 (50 nM)
From the text: To evaluate the activity of compounds in β-Arrestin GPCR functional assays, recombinant CHO cell line (DiscoveRX), over expressed with human adrenergic α2B receptor were used. The experiment was done with kit of DiscoveRX as per recommended protocol of the supplier. […] The reading was taken in Envision at luminescence mode. […]
Recorded measurements of Percentage inhibition, Adrenergic α2B, one per entry
// return numeric value only (unit: %, not printed)

{"columns": ["Compound", "Property measured", "Assay value"],
 "data": [
  ["Cc1ccc2c(c1)c1c(n2CC(O)c2ccncc2F)CCN2CCCC12 (single isomer, unassigned) [14b]", "Percentage inhibition, Adrenergic α2B", 93]
]}

stdin: Query for Human adrenergic α2B receptor (Homo sapiens, UniProt P18089): what Percentage inhibition, Adrenergic α2B does the record show for Cc1cc(C)c2c(c1)c1c(n2CC(C)(O)c2ccncc2)CCN2CCCC12 (single isomer, unassigned) [19a] ?
stdout: 71

stdin: Query for Human adrenergic α2B receptor (Homo sapiens, UniProt P18089): what Percentage inhibition, Adrenergic α2B does the record show for Cc1cc(C)c2c(c1)c1c(n2CC(C)(O)c2ccncc2)CCN2CCCC12 (single isomer, unassigned) [19b] ?
stdout: 34

stdin: Query for Human adrenergic α2B receptor (Homo sapiens, UniProt P18089): what Percentage inhibition, Adrenergic α2B does the record show for Cc1ccc2c(c1)c1c(n2CC(C)(O)c2ccncc2)CCN2CCCC12 (single isomer, unassigned) [13b] ?
stdout: 30

stdin: Query for Human adrenergic α2B receptor (Homo sapiens, UniProt P18089): what Percentage inhibition, Adrenergic α2B does the record show for Cc1ccc2c(c1)c1c(n2CC(O)c2ccncc2F)CCN2CCCC12 (single isomer, unassigned) [14a] ?
stdout: 9

====

Molecular target: UniProt:P18089
Assay: Radioligand binding, adrenergic α2B (Protocol Group B)
Design: purchased Milipore (Millipore)
Conditions: 30 nM compound; Protocol Group B; 0.03 µM
Recorded measurements of Percentage inhibition of ligand binding, Adrenergic α2B (30 nM), one per entry
// return numeric value only (unit: %, not printed)

The following compounds have reported results that may help.
{"columns": ["Compound", "Assay value"],
 "data": [
  ["Cc1ccc2c(c1)c1c(n2CC(C)(O)c2ccc(F)cc2)CN2CCC1C2 (single isomer, unassigned) [134a]", "−8"],
  ["CC(O)(Cn1c2c(c3cc(F)cc(Cl)c31)C1CCCN1CC2)c1cccnc1 (single isomer, unassigned) [89c]", 78],
  ["Cc1ccc2c(c1)c1c(n2CC(C)(O)c2cccnc2)CC2CCCN2C1 (stereo not shown) [41b]", "−14"]
]}

Next compound, Percentage inhibition of ligand binding, Adrenergic α2B (30 nM) to be filled in.
stdin: Need Percentage inhibition of ligand binding, Adrenergic α2B (30 nM), item OC(Cn1c2c(c3cc(Cl)cc(F)c31)C1CCCN1CC2)c1ccncc1 (single isomer, unassigned) [135b]
stdout: 83

====

Target: Human adrenergic α2B receptor (Homo sapiens, UniProt P18089)
Sequence (P18089 1-450): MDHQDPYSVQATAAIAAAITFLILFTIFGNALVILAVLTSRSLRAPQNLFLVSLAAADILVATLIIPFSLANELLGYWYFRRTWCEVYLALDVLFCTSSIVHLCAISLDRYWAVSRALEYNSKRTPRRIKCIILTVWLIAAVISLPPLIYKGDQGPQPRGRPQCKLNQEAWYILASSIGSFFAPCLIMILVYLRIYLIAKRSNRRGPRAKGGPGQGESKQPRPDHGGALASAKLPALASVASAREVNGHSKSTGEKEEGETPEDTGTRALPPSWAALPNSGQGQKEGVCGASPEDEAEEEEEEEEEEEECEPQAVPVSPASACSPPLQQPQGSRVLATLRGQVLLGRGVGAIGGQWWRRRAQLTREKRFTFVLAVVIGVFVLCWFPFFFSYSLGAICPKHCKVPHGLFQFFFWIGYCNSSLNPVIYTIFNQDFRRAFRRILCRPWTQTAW
Experiment: Radioligand binding, adrenergic α2B (Protocol Group B)
Parameters: purchased Milipore (Millipore)
Conditions: Protocol Group B; estimated Ki; read-out: Ki α2B
Method: To evaluate the activity of compounds in radioligand binding assays, Human adrenergic α2B receptor obtained from recombinant cell membrane from Milipore. Binding experiments were carried out in Tris-HCl buffer (50 mM Tris-HCl buffer, pH 7.4, 5 mM Mgcl2, 1 mM Cacl2, 0.2% BSA) as recommended by Milipore. […] Non-specific binding was estimated in the presence of 10 μM Rauwolscine. […] Compounds were screened at various concentrations, using 1% DMSO as vehicle. […]
Cut-off 2 nM on Ki: below means condition met, at or above means condition not met.

{"columns": ["Compound", "Measured target", "Group"],
 "data": [
  ["CC(O)(Cn1c2c(c3cc(Cl)cc(F)c31)C1CCCN1CC2)c1cccnc1 (single isomer, unassigned) [53b]", "Human adrenergic α2B receptor (Homo sapiens, UniProt P18089)", "condition met"],
  ["Cc1cc(C)c2c(c1)c1c(n2CC(C)(O)c2cccnc2)CCN2CCCC12 (single isomer, unassigned) [44a]", "Human adrenergic α2B receptor (Homo sapiens, UniProt P18089)", "condition not met"],
  ["Cc1cc(C)c2c(c1)c1c(n2CC(C)(O)c2ccncc2)CCN2CCCC12 (single isomer, unassigned) [19a]", "Human adrenergic α2B receptor (Homo sapiens, UniProt P18089)", "condition met"],
  ["Cc1cc(C)c2c(c1)c1c(n2CC(C)(O)c2ccncc2)CCN2CCCC12 (single isomer, unassigned) [19b]", "Human adrenergic α2B receptor (Homo sapiens, UniProt P18089)", "condition not met"],
  ["Cc1cc(F)cc2c3c(n(CC(C)(O)c4cccnc4)c12)CCN1CCCC31 (single isomer, unassigned) [75d]", "Human adrenergic α2B receptor (Homo sapiens, UniProt P18089)", "condition not met"],
  ["Cc1ccc2c(c1F)c1c(n2CC(C)(O)c2cccnc2)CCN2CCCC12 (single isomer, unassigned) [87d]", "Human adrenergic α2B receptor (Homo sapiens, UniProt P18089)", "condition met"]
]}

stdin: Does CC(O)(Cn1c2c(c3cc(F)cc(Cl)c31)C1CCCN1CC2)c1ccncc1 (single isomer, unassigned) [88b] have Ki strictly under 2 nM?
stdout: condition not met
